These entries and their values trace back to PubChem BioAssay (NCI).

- Tested on: T-47D breast
- Assay Procedure: NCI tumour cell line growth inhibition, 48 h
Each entry below carries its reported TGI.
Answer in µM, number only, no unit symbol.

Just so you know, measured TGI for "C=C1C(=O)O[C@H]2C/C(C)=C/CC[C@@]3(C)O[C@](C)(CC[C@@H]3I)[C@@H](I)C[C@@H]12" came out at 15

###

- System: SK-MEL-5 melanoma
- Assay Procedure: NCI tumour cell line growth inhibition, 48 h
compounds and their reported TGI
Just the number please, in µM, no unit attached.

{"Item Smiles": "Fc1cc2[nH]ncc2c2c3c(c(-c4cn[nH]c4C(F)(F)F)nc12)CCCC3", "Display Unit": "µM", "Reported Measurement": 2.95}
{"Item Smiles": "O=c1c2cc(I)ccc2nc(SCc2nncs2)n1Cc1ccccc1", "Display Unit": "µM", "Reported Measurement": 88.3}
{"Item Smiles": "CCN1C/C(=C\\c2cc(OC)c(OC)cc2OC)C(=O)/C(=C/c2cc(OC)c(OC)cc2OC)C1", "Display Unit": "µM", "Reported Measurement": 3.53}

// next item, TGI requested
// TGI lookup, compound = "CC(C)(CN1CCCCC1)C(=O)/C=C/c1ccc(/C=C/C(=O)C(C)(C)CN2CCCCC2)cc1" , result: 1.98
